- Experiment Summary: Selectivity ratio of IC50 for horse serum BChE to IC50 for electric eel AChE
Define the label as Criterion met when Ratio IC50 is strictly less than 10 and as Criterion not met in all remaining cases.

Solved entries (count: 6):
# Compound, Label Class
measured = [
    ("Cc1[nH]nc2c1C(c1ccc(Cl)cc1)c1c(nc3c(c1N)CCCC3)O2 (configuration not stated)", "Criterion not met"),
    ("Cc1[nH]nc2c1C(c1ccc(Br)cc1)c1c(nc3c(c1N)CCCC3)O2 (configuration not stated)", "Criterion met"),
    ("Cc1[nH]nc2c1C(c1cccnc1)c1c(nc3c(c1N)CCCC3)O2 (configuration not stated)", "Criterion not met"),
    ("COc1ccc2ccccc2c1C1c2c(n[nH]c2C)Oc2nc3c(c(N)c21)CCCC3 (configuration not stated)", "Criterion not met"),
    ("Cc1ccc(C2c3c(n[nH]c3C)Oc3nc4c(c(N)c32)CCCC4)c(C)c1 (configuration not stated)", "Criterion not met"),
    ("Cc1[nH]nc2c1C(c1ccc(-c3ccccc3)cc1)c1c(nc3c(c1N)CCCC3)O2 (configuration not stated)", "Criterion not met"),
]

### Prompt # strict comparison: is reported Ratio IC50 < 10? input = Cc1[nH]nc2c1C(c1cc([N+](=O)[O-])ccc1Cl)c1c(nc3c(c1N)CCCC3)O2 (configuration not stated)
### Response Criterion met

### Prompt Moving on to Cc1[nH]nc2c1C(c1ccc([N+](=O)[O-])cc1)c1c(nc3c(c1N)CCCC3)O2 (configuration not stated)
### Response Criterion met

### Prompt Same read-out for COc1ccc(C2c3c(n[nH]c3C)Oc3nc4c(c(N)c32)CCCC4)c(OC)c1 (configuration not stated) ?
### Response Criterion not met

### Prompt One more compound: Cc1[nH]nc2c1C(c1ccccc1)c1c(nc3c(c1N)CCCC3)O2 (configuration not stated)
### Response Criterion not met

### Prompt Another: CSc1ccc(C2c3c(n[nH]c3C)Oc3nc4c(c(N)c32)CCCC4)cc1 (configuration not stated)
### Response Criterion not met

### Prompt What do you have for Cc1[nH]nc2c1C(c1c(Cl)cccc1[N+](=O)[O-])c1c(nc3c(c1N)CCCC3)O2 (configuration not stated) ?
### Response Criterion met
